Value source: the nanobody polyreactivity screen of Harvey et al. (2022)

assay.protocol: yeast display, Sf9 membrane polyspecificity reagent, FACS + sequencing; frameworks hold sequencing errors
measured.quantity: polyreactivity (PSR sort gate)

{"columns": ["query.sequence", "test.value"],
 "data": [
  ["QVQLVESGGGLVQAGGSLRLSCAASGFIFYTYAIGWYRQAHGKERELVAAISRGGRTNYADSVKGRFTISRDNAKNSVYLQMNSLKPEDPAVYYCPSSYSHRYDYWGQGTQVTVSS", "high polyreactivity"],
  ["QVQLVESGGCLVQAGGSLRLSCAASGRIFGYYAMGWYRQEPWKERELVAAISYSGGTTYYADSVKGRFTISRDNAKNTVYLQMNSLKPEDTAVYYCAAESYTYYADYGYGYWGQGTQVSVSS", "high polyreactivity"]
]}
